Test system: PPARg DBDmut IVT, anti-PPARg (DBD mutation: PPARg1 K132A/R137A, NR concentration 270 nM)
Assay method text: PBM binding z-score (relative to random genomic background probes); higher = stronger binding; sequences stand for … in GC…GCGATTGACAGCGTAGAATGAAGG
Label YES for high-side PBM binding z-score (at or above 1) and NO for low-side PBM binding z-score (below it).

# Sequence chain, Label class
rows = [
    ("AGAACGAGGCCAATGAGTTGATAGCACGGGTGGC", "NO"),
    ("AGAATGAGGTTAAGATCTGGGAAACAGAATACAT", "NO"),
    ("GCATATAGGTAATACAAAGTGAAAGTCCGATTGT", "YES"),
    ("CAAACTATGTCACCGGAAGGTCAAAGTCCGCATG", "YES"),
    ("CCTATTAGTTGACCATGAGGGCAACCGAAGCTCG", "NO"),
    ("CAAACTAGGTCACCGGAGGGTCAAAGTCCGCATG", "NO"),
    ("ATCTCTAGGTAAAGTTCTGTGAAAGATCGATAGA", "YES"),
    ("CCTATTAGTTGACCATAATGGCAACCGAAGCTCG", "YES"),
    ("TCATATCGGTAAACAGGTGAAAGTCCGTAAGTTA", "NO"),
    ("ACTAGTTGGTTAGCTGAGGTCACACACAATTCGG", "NO"),
    ("CCTAGTTGATCAGGAGGTCACACACCGGATATGA", "NO"),
    ("TCTAGTTGTTCAAAGGTCACACACTCGAAATGCG", "YES"),
]
